System: Human betaherpesvirus 5
Assay: Antiviral activity against (S)-3-hydroxy-2-phosphonomethoxypropyl adenine-resistant HCMV with DNA polymerase mutant in HEL cells assessed as reduction of virus-induced cytopathogenicity
Assay type: functional, organism-based
Settings: Human betaherpesvirus 5, HEL
READOUT TYPE: log10 EC50 (log10 of the value in µg/mL)
In plain terms, each number is the log10 of measured EC50 in µg/mL.

Use the examples below as a reference point.
Nc1nc2c(ncn2COC(CO)CO)c(=O)[nH]1	0.96
Nc1ccn(C[C@@H](CO)OCP(=O)(O)O)c(=O)n1.O.O	0.49
Nc1nc2c(ncn2COCCO)c(=O)[nH]1	0.90

[ask] State the recorded log10 EC50 for this entry: O=C(O)P(=O)(O)O
[reply] 1.54

[ask] State the recorded log10 EC50 for this entry: Nc1nc(N)c2ncn(CCOCP(=O)(O)O)c2n1
[reply] 0.45

* * *

Test system: Human betaherpesvirus 5
Experiment: Antiviral activity against foscarnet-resistant HCMV with DNA polymerase mutant in HEL cells assessed as reduction of virus-induced cytopathogenicity
Format: functional, organism-based
Conditions: Human betaherpesvirus 5, HEL
READOUT TYPE: EC50 (mg/L)
Quick note: give the figure in mg/L, leave out the unit.

Nc1nc2c(ncn2COC(CO)CO)c(=O)[nH]1	1.5
O=C(O)P(=O)(O)O	135
Nc1ncnc2c1ncn2CCOCP(=O)(O)O	128
Cc1cn([C@@H]2O[C@H](CO[Si](C)(C)C(C)(C)C(C)C)[C@@]3(OS(=O)(=O)C=C3NC(=O)NC(=O)c3ccccc3)[C@H]2O[Si](C)(C)C(C)(C)C(C)C)c(=O)n(C)c1=O	2.7
Nc1nc(N)c2ncn(CCOCP(=O)(O)O)c2n1	44

[ask] State the recorded EC50 for this entry: Nc1ccn(C[C@@H](CO)OCP(=O)(O)O)c(=O)n1.O.O
[reply] 0.1

[ask] State the recorded EC50 for this entry: Cc1cn([C@@H]2O[C@H](CO[Si](C)(C)C(C)(C)C(C)C)[C@@]3(OS(=O)(=O)C=C3NC(=O)NC(=O)c3ccccc3)[C@H]2O[Si](C)(C)C(C)(C)C)c(=O)n(C)c1=O
[reply] 0.78

[ask] State the recorded EC50 for this entry: Nc1nc2c(ncn2COCCO)c(=O)[nH]1
[reply] 173

[ask] State the recorded EC50 for this entry: Nc1ncnc2c1ncn2C[C@@H](CO)OCP(=O)(O)O
[reply] 0.11

* * *

Experiment: Cytotoxicity against HEL cells assessed as alteration in cell morphology after 3 days
Assay type: cell-based
Details: human
READOUT TYPE: MCC at 72 h (µM)
Quick note: give the figure in µM, leave out the unit.

[ask] State the recorded MCC at 72 h for this entry: Cc1cn([C@@H]2O[C@H](CO)[C@@]3(OS(=O)(=O)C=C3NC(=O)NC(=O)c3ccccc3)[C@H]2O)c(=O)n(C)c1=O
[reply] 100

[ask] State the recorded MCC at 72 h for this entry: Cc1cn([C@@H]2O[C@H](CO[Si](C)(C)C(C)(C)C)[C@@]3(OS(=O)(=O)C=C3NC(=O)N(C(=O)Nc3ccccc3)c3ccccc3)[C@H]2O[Si](C)(C)C(C)(C)C)c(=O)n(C)c1=O
[reply] 46

[ask] State the recorded MCC at 72 h for this entry: CC(=O)N[C@@H]1O[C@H](CO[Si](C)(C)C(C)(C)C)[C@@]2(OS(=O)(=O)C=C2NC(=O)NC(=O)c2ccccc2)[C@H]1O[Si](C)(C)C(C)(C)C
[reply] 100
